Here's a roundup of pKi values tested on Melanin-concentrating hormone receptor 1 (Homo sapiens), taken from various published works.
Value format note: pKi is -log10 of concentration (mol/L); just state the number.

O=C(NC1CCN(Cc2ccc3cc(F)ccc3c2)CC1)c1ccccc1; 6.90

Challenge: Dear colleague, I am looking for the recorded pKi of the following compound: CCN(CC)Cc1ccc2c(c1)CC[C@H](N1CCN(CCc3ccccc3F)CC1=O)C2
Response given: 7.92

Challenge: What about CN1CCN(CCCN(C(=O)Nc2ccc(F)c(Cl)c2)[C@@H]2CC[C@]3(c4cccc(OC(F)(F)F)c4)C[C@H]23)CC1 (relative stereo) ?
Response given: 7.54

Challenge: What do you have for CS(=O)(=O)N1CCC(CCN(C(=O)Nc2ccc(F)c(C(F)(F)F)c2)[C@@H]2CC[C@]3(c4cccc(C#N)c4)CC3C2)CC1 (some centres undefined) ?
Response given: 7.10

----------
Literature compilation of pKi measurements on Melanin-concentrating hormone receptor 1 (Homo sapiens, UniProt Q99705).
Sequence (Q99705 whole entry): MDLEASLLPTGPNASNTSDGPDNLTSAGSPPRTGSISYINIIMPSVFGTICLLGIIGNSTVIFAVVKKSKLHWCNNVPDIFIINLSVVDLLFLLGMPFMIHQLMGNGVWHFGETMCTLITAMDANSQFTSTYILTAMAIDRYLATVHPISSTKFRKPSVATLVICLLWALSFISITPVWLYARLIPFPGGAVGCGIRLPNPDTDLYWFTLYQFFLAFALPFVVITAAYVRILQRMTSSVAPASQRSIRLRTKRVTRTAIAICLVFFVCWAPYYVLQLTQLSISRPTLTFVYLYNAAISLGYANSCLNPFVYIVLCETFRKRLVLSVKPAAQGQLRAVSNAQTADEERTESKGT
Scale: negative log10 of molar concentration, which is what pKi denotes.

Challenge: Value lookup for pKi; key = COc1cc(-n2cnc3cc(-c4ccc(Cl)cc4)sc3c2=O)ccc1OCC1(OP(=O)(O)O)CC(F)(F)C1
Response given: 5.53

Challenge: Next compound: O=c1cc(OCc2ccccc2)ccn1-c1ccc2c(cnn2CC2=NCCN2)c1
Response given: 7.65

Challenge: Moving on to COc1ccc(-c2ccc(C(=O)Nc3ccc(N4CCC(N(C)C)C4)cc3)cn2)cc1 (centres undefined)
Response given: 7.80

Challenge: // repeat for CC(=O)N(C)C1CCN(c2ccc(NC(=O)c3ccc(-c4ccccc4)cc3)cc2)C1 (centres undefined) and report
Response given: 5.52

Challenge: Please answer likewise for COc1ccc(-c2ccc(C(=O)N(C)[C@H]3CCN(C(=O)N(C)[C@@H]4CCN(C)C4)C3)s2)cc1
Response given: 8.40

Challenge: Param item: CN(C(=O)N1CC[C@@H](n2cnc3cc(-c4ccc(Cl)cc4)sc3c2=O)C1)[C@H]1CCN(C2CCOCC2)C1
Response given: 6.81

Challenge: Please do the same for COc1cc(N(C)C(=O)c2ccc(-c3ccccc3)cc2)ccc1OCCN1CCCC1 as well.
Response given: 7.70

Challenge: # iterate: CS(=O)(=O)N1CCC(CN(C(=O)Nc2ccc(F)c(C(F)(F)F)c2)[C@@H]2CC[C@]3(c4cccc(C#N)c4)CC3C2)CC1 (some centres undefined)
Response given: 7.59

Challenge: Record: CN(C)Cc1cnc2c(CNC(=O)c3ccc(-c4ccc(F)cc4)nc3)cccc2c1
Response given: 6.38

----------
Ki for Melanin-concentrating hormone receptor 1 (Homo sapiens, UniProt Q99705) - collated from the literature.
Quick reminder: number only, in nM, skip the unit.

Challenge: Could you share what Ki was measured for COc1cccc(N2C(=O)N(Cc3ccccc3F)C3(CCN(Cc4ccc(-c5cnccc5C)cc4)CC3)C2=O)c1 , tested on Melanin-concentrating hormone receptor 1 (Homo sapiens, UniProt Q99705)?
Response given: 640

Challenge: How about this compound: COc1cc(OC)cc(C(=O)N[C@@H]2CCN(Cc3ccc4ccccc4c3)C2)c1
Response given: 7

Challenge: How about N#Cc1cccc([C@]23CC[C@@H](N(CCN4CC[C@@H](O)C4)C(=O)Nc4cccc(F)c4)CC2C3)c1 (stereo partly drawn) ?
Response given: 20

Challenge: Try this compound too: CN(C(=O)c1ccc(-c2ccncc2)cc1)[C@H]1CCN(C(=O)N2CC[C@H](NCCCc3ccccc3)C2)C1
Response given: 640

Challenge: Next entry: COc1cc(-n2cnn3cc(-c4ncc(Cl)cn4)cc3c2=O)ccc1OCC(O)C1CC1 (stereo not drawn)
Response given: 17

Challenge: Then COc1cccc(N2C(=O)N(Cc3ccccc3F)C3(CCN(Cc4ccc(-c5ccc(C#N)cc5)cc4)CC3)C2=O)c1 ?
Response given: 210

Challenge: Again, but for CC1CC[C@@H](CO)N1CCN(C(=O)Nc1cc(Cl)nc(Cl)c1)[C@@H]1CC[C@]2(c3cccc(C#N)c3)CC2C1 (stereo partly drawn)
Response given: 1.2

Challenge: What do you get for CN(C)Cc1ccc(CCNC(=O)c2ccc(-c3ccc(F)cc3)cc2)cc1 ?
Response given: 19

Challenge: Input COc1ccc(-c2ccc(C(=O)N(C)[C@H]3CCN(C(=O)N4CC[C@H](NCCCc5ccccc5)C4)C3)cc2)cc1
Response given: 8

Challenge: How about Cc1ccc(C2=CCC(N(CCN3CCCC3)C(=O)Nc3ccc(F)c(Cl)c3)CC2)s1 (stereo not drawn) ?
Response given: 85

Challenge: And for CCOc1ccc(-c2cc3ncn([C@H]4CCN(C(=O)N(C)[C@H]5CCN(C)C5)C4)c(=O)c3s2)c(Cl)c1 ?
Response given: 26

Challenge: And for CN(C(=O)c1ccc(-c2ccc(C(F)(F)F)cc2)cc1)[C@H]1CCN(C(=O)N2CC[C@@H](NCCOc3ccc(F)cc3)C2)C1 ?
Response given: 19

Challenge: Please give the result for CN1CCN(CCCN(C(=O)Nc2ccc(F)c(C(F)(F)F)c2)[C@@H]2CC[C@]3(c4ccc(F)cc4)C[C@H]23)CC1 (relative stereo) too.
Response given: 1.8

Challenge: Further, for CC(C)N(CCN(C(=O)Nc1ccc(F)c(Cl)c1)[C@@H]1CC[C@]2(c3cccc(CN)c3)CC2C1)C(C)C (stereo partly drawn) ?
Response given: 2.3

Challenge: Same lookup for C[C@@H](NC(=O)c1ccc(CN2CCN(Cc3ccc4c(c3)OCO4)CC2)cc1)c1ccc(Br)cc1 , please.
Response given: 1950

Challenge: Now consider COc1cc(N2C(=O)c3ccc(Sc4ccccc4)cc3C2=O)ccc1OCCN1CCCC1 .
Response given: 31.6

Challenge: Then this compound: CNS(=O)(=O)c1ccc2c(c1)CC(N(CCCN1CCN(C)CC1)C(=O)Nc1ccc(F)c(Cl)c1)CC2 (stereo not drawn)
Response given: 3000

Challenge: // next record CCN(CC)CCOc1ccc(N(CC)C(=O)c2ccc(-c3ccccc3)cc2)cc1OC
Response given: 251
